Test: antimalarial activity against Dd2 strain (AID 2302);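 also: 0% = DMSO untreated growth and 100% = chloroquine plus artemisinin killed control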
Conditions: P. falciparum Dd2 in RBCs, LDH growth readout, 72 h; at 2 µM; active compounds read high
Tag: true (1) if measured growth inhibition is not below 60%, false (0) if it is.

- COc1ccc(-c2cccc(NC(=O)c3cccc(F)c3)c2)cc1CN1CCCN(C)CC1: true (1)
- O=C(Nc1ccccc1)N(Cc1ccc(-c2cccc(CNCc3ccc4c(c3)OCO4)c2)cc1)C1CCN(Cc2ccccc2)CC1: true (1)
- COc1ccc(C2CC(=O)C3=C(C2)NC(C)=C(C(=O)OC(C)C)C3c2c(F)cccc2Cl)cc1OC (configuration not stated): true (1)
- COc1cc2cc(Cc3cnc(N)nc3N)ccc2c(OC)c1OC: false (0)
- Nc1nc2ccc(CN(C=O)c3ccc(C(=O)N[C@@H](CCC(=O)O)C(=O)O)cc3)cc2c(=O)[nH]1: true (1)
- Cc1cc(OCC(=O)Nc2ccc(-c3nc4ccccc4[nH]3)cc2)cc(C)c1Cl: false (0)

As a next step, examine the molecule that follows.
Evaluate N#Cc1ccc(C(=O)NC2CCN(CCCCCNC(=O)/C=C/c3ccc(Cl)c(Cl)c3)CC2)cc1 : growth inhibition at minimum 60%? false (0)

###

Biological target: L-lactate dehydrogenase (Plasmodium falciparum (isolate CDC / Honduras))
Assay: PfLDH activity inhibition – cell lysate, 3D7 strain, counter-screen for P. falciparum growth inhibition project (AID 2304);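 also: 0% = vehicle and 100% = reference inhibitor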
Details: P. falciparum 3D7 crude extract, LDH APAD/NBT absorbance; at 2 µM; active compounds read high
Readout: inhibition (%)
# value in %; strip the unit string

Use the examples below as a reference point.
• COc1cc(NC(=O)CCCCCCCCN2CCN(C)CC2)c2ncccc2c1 = -1
• O=C(Nc1ccc([N+](=O)[O-])cc1)Nc1cc(OCC(F)(F)F)cc(OCC(F)(F)F)c1 = 5
• c1ccc2[nH]c(-c3ccc(-c4ccc(CNCCc5ccncc5)cc4)s3)nc2c1 = -6

Which inhibition value is on record for CC(=O)Nc1nc(C(=O)Nc2ccc(-c3cccc(-c4nc5ccc(C(F)(F)F)cc5[nH]4)c3)cc2)cs1 ? -2

Can you share its inhibition? I mean this compound: CCN(CC)S(=O)(=O)n1ncc2c3c(N)nc(N)nc3ccc21 3

# lookup: inhibition of O=C(Nc1ccc(C(F)(F)F)cc1)c1ccc(S(=O)(=O)NCC2CCCN(CC3CCCCC3)C2)cc1 (stereo unspecified) -7

Sample COc1cc(NC2=NS(=O)(=O)c3cc(Cl)ccc3N2C)cc(OC)c1OC — what was its inhibition? -2

What measured inhibition goes with Nc1nccc2ccc(-c3cccc4ncccc34)cc12 ? -1

Given the entry Cc1c(C(=O)N(C)C)sc2c1c(=O)n(Cc1ccccc1)c(=O)n2CC(=O)Nc1ccccc1F , report its measured inhibition. -1

Which value of inhibition has been reported for N#Cc1ccccc1N1CCN(C2CCC(NC(=O)c3n[nH]c4cc(C(F)(F)F)ccc34)CC2)CC1 (stereo unspecified) in the records? -4

What does the data say about its inhibition? Entry: CCNc1cc(C(=O)N[C@@H](Cc2ccccc2)[C@H](O)CNC(C)Cc2cccc(Cl)c2)cc(N2CCCCS2(=O)=O)c1 (stereo partly specified) 1

###

Assay: inhibition of 3D7 malaria parasite growth – strain 3D7 (AID 2306);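 also: 0% = DMSO wells and 100% = chloroquine plus artemisinin control wells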
Settings: P. falciparum 3D7 erythrocytic growth, LDH absorbance, 72 h; at 2 µM; active compounds read high
Readout: growth inhibition (%)
Write the number in % without appending the unit.

Some compounds with known growth inhibition results, for comparison:
- Nc1ncc(-c2ccsc2)c2ccc(-c3cnc[nH]3)cc12: 100
- CCN(CCS(C)(=O)=O)Cc1ccc(-c2ccc3ncnc(Nc4ccc(OCc5cccc(F)c5)c(Cl)c4)c3c2)o1: 101
- Cc1ccc(F)cc1S(=O)(=O)Nc1cccc(CCN2CCC(N3CCCCC3)CC2)c1: 96

Data request, read-out growth inhibition, for COc1ccc(N2CCN(CCCCNC(=O)c3ccc(/C=C/c4ccc(Cl)c(Cl)c4)cc3)CC2)c(OC)c1 101

// lookup growth inhibition for O=C(Nc1ccc(S(=O)(=O)NCCCN2CCOCC2)cc1)c1cc(-c2ccccc2)n[nH]1 82

Fill in the blank: the reported growth inhibition of CC(=O)c1ccc(N2CCN(C(=O)Nc3ccc(Cl)cc3)CC2)cc1 is ____. 97

###

Experiment: antimalarial activity against Dd2 strain (AID 2302);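 also: 0% = DMSO untreated growth and 100% = chloroquine plus artemisinin killed control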
Details: P. falciparum Dd2 in RBCs, LDH growth readout, 72 h; at 2 µM; active compounds read high
Entries are sorted into classes by growth inhibition as follows: low band: < 40%; middle band: ≥ 40% and < 80%; high band: ≥ 80%

- OCCN1CCN(Cc2cccc(-c3ccc(-c4nc5ccc(C(F)(F)F)cc5[nH]4)cc3)c2)CC1: high band
- CC(C)(C)c1nn(-c2ccccc2)c2[nH]c(=O)c(CNCc3ccccc3)cc12: high band
- COc1ccc2nc(C)cc(Nc3ccc(Cl)cc3)c2c1: low band
- Cc1cccc2[nH]c(-c3ccc(-c4ccc(NC(=O)C5CCN(C)CC5)cc4)cc3)nc12: high band
- COc1ccc(NC(=O)[C@H](Cc2ccccc2)Nc2cc(C)nc(NCCc3ccccc3)n2)cc1: high band
- Cc1cc(NC2CCCC2)nc(Nc2ccc(F)cc2)n1: middle band

Okay, next one:
Class for CCOc1ccc(C(C)NC(=O)Cc2ccccc2F)cc1OCC (stereo not given) ? middle band

###

Documented growth inhibition across a set of compounds
Assay: inhibition of 3D7 malaria parasite growth – strain 3D7 (AID 2306);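 also: 0% = DMSO wells and 100% = chloroquine plus artemisinin control wells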
Conditions: P. falciparum 3D7 erythrocytic growth, LDH absorbance, 72 h; at 2 µM; active compounds read high
Calls of active or inactive are those of the source. The rule behind the calls is not given here.

Some entries whose results are on file:
- COc1cc2nc(C)nc(Nc3ccc(Cc4ccccc4)cc3)c2cc1OC: 101% (active)
- CC(C)CCCC(C)(C)NC[C@@H](O)[C@H](Cc1ccccc1)NC(=O)c1cccc(CCC2CC2)c1: 98% (active)
- CN1CCN(c2cc3c(cc2Cl)CCN3C(=O)Nc2ccc(NC(=O)c3ccc(C(F)(F)F)cc3)cc2)CC1: 100% (active)
- O=C1OC2(CCN(Cc3cccc(-c4ncc[nH]4)c3)CC2)CN1CCNCc1ccccc1: 94% (active)
- COc1ccc2nccc([C@@H](O)CN3CCC(NC(=O)/C=C/c4ccc5[nH]c(=O)ccc5c4)CC3)c2c1: 96% (active)

Sample Cc1ccc2nc(C)cc(NN=Cc3cccc(F)c3)c2c1 — what was its growth inhibition? 99% (active)

Name the recorded growth inhibition for CCCNC(=O)C1CCN(C(c2ccccc2)c2ccc(Cl)c(Cl)c2)CC1 (stereo unspecified) . 90% (active)

Which growth inhibition reading was recorded for the compound C(=NNc1nc2ccccc2[nH]1)c1ccccc1OCc1ccccc1 ? 100% (active)

// growth inhibition lookup, key: Nc1c2c(nc3ccc(Oc4ccc(Br)cc4Br)cc13)CCCC2 99% (active)

Form field: reported growth inhibition of O=C(CCc1cnc[nH]1)Nc1cccc(-c2cccc(-c3nc4ccc(C(F)(F)F)cc4[nH]3)c2)c1 101% (active)

So what's the measured growth inhibition for this one? O=C(Nc1ccccc1)NC1CCN(CCC2(c3ccc(Cl)c(Cl)c3)COCN(C(=O)c3ccccc3)C2)C1 (stereo unspecified) 92% (active)

###

Experiment: antimalarial activity against Dd2 strain (AID 2302);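 also: 0% = DMSO untreated growth and 100% = chloroquine plus artemisinin killed control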
Conditions: P. falciparum Dd2 in RBCs, LDH growth readout, 72 h; at 2 µM
Active and inactive are the calls of the source.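 The calls were made as follows: active = growth inhibition above 50% at the single 2 µM test dose, taken to imply half-maximal potency below 2 µM; inactive = the rest.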
Can you answer with just one of these options? active, inactive

Use the examples below as a reference point.
- CC(C)COc1ccc(Cl)cc1Cc1ccc(-c2nc3ccc(F)cc3[nH]2)o1: inactive
- COc1ccc2nc3cc(Cl)ccc3c(Nc3ccc(O)c(CN4CC5CCC(CC5)C4)c3)c2c1: active

Hello, I am checking results. What call was entered for COc1ccc(C2CCN(CCCNC(=O)c3ccc(NC(=O)c4ccc(Cl)cc4)cc3)CC2)c(OC)c1 ? active

Outcome? COc1ccccc1CN1CCC(NC(=O)c2ccc(-c3ccc(N(C)C)cc3)s2)CC1 inactive

Check the results log: what was the call for O=C(CCc1cnc[nH]1)Nc1cccc(-c2cccc(-c3nc4ccc(C(F)(F)F)cc4[nH]3)c2)c1 ? active

Identify the outcome logged in this assay for the molecule shown: O=C1OC2(CN1CC1CCN(Cc3ccc(O)cc3Cl)C1)c1ccccc1-c1ccccc12 (configuration not stated) active

Status in this test for c1cc2nc(CCc3nc4ccc(C5=N[C@H]6CCCC[C@H]6N5)cc4[nH]3)[nH]c2cc1C1=N[C@@H]2CCCC[C@@H]2N1 ? active

###

Test: antimalarial activity against Dd2 strain (AID 2302);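 also: 0% = DMSO untreated growth and 100% = chloroquine plus artemisinin killed control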
Settings: P. falciparum Dd2 in RBCs, LDH growth readout, 72 h; at 2 µM
Calls of active or inactive are those of the source.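 Rule for the calls: active = growth inhibition above 50% at the single 2 µM test dose, taken to imply half-maximal potency below 2 µM; inactive = the rest.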
Parameter call: string, one of 1.0 = active, 0.0 = inactive

Some entries whose results are on file:
• OCC1CCN(Cc2cccc(-c3cccc(-c4nc5ccc(C(F)(F)F)cc5[nH]4)c3)c2)CC1 = 1.0
• COc1ccc(Nc2nc(N3CCCC3)c3ccccc3n2)cc1 = 1.0

Recorded test call requested for CCCN1CCN(Cc2ccc(-c3ccc(-c4nc5ccccc5[nH]4)s3)cc2)CC1 1.0

What is the recorded call for this compound in the test? Cc1ccc(CNC(=O)[C@H](CCCN)Nc2nc(Nc3ccccc3)ncc2C)cc1 0.0
